# Tested On: 5-lipoxygenase (Rattus norvegicus, UniProt P12527)
# Construct: endogenous in cells
# Sequence (P12527 1-673): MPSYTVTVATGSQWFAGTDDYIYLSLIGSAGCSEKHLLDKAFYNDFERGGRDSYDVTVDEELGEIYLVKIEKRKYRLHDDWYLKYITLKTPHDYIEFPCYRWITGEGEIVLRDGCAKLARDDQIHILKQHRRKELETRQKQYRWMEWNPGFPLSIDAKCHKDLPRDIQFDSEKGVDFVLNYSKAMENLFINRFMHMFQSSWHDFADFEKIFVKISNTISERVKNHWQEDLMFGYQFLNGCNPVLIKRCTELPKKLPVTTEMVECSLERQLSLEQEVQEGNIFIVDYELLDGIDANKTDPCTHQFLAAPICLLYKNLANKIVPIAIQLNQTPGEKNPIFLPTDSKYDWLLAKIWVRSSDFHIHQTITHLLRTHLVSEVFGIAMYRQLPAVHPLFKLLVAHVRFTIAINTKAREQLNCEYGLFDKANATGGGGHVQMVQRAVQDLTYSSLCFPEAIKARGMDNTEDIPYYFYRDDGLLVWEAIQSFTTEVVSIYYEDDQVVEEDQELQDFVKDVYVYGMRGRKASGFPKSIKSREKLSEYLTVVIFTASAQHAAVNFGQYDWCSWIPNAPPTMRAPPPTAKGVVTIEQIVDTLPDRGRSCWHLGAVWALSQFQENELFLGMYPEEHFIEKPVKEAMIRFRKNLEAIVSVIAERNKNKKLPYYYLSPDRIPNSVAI
# Test Details: 5-lipoxygenase inhibiting activity test (RBL-1 cell homogenate)
# Assay Setup: pH 7.4, 37° C., 5-HETE formation
Measure: pIC50
Friendly reminder that pIC50 comes from taking -log10 of the concentration in mol/L.

[in] So what does the record say about pIC50 for COc1ccc(OC)c(C(=O)/C=C/c2ccc(O)c(O)c2)c1 [Example 1, 2',5'-dimethoxy-3,4-dihydroxychalcone] ?
[out] 8.11

###

Consider the following molecules; for each one, report its inhibition in vivo at 10 µg/ear.
# Tested on: ear swelling induced by arachidonic acid
# Test Details: topical anti-inflammatory activity test (arachidonic acid-induced ear swelling)
# Type: in vivo, male ICR mice
# Assay Setup: Mus musculus, 10 μg/ear, 1 hour before 1 mg arachidonic acid, read-out: Ratio of inhibition of ear swelling induced by arachidonic acid
Express it in %; write the number only.

[in] So what does the record say about inhibition in vivo at 10 µg/ear for COc1ccc(C(=O)C=Cc2ccc(O)c(O)c2)cc1 [Example 21] ?
[out] 45

[in] Item: CCOc1ccc(OCC)c(C(=O)C=Cc2ccc(O)c(O)c2)c1 [Example 16]
[out] 7

[in] Item: Cc1ccc(O)c(C(=O)C=Cc2ccc(O)c(O)c2)c1 [Example 5]
[out] 31

[in] Item: COc1ccc(O)c(C(=O)C=Cc2ccc(O)c(O)c2)c1 [Example 6]
[out] 7.6

###

# Tested On: cyclooxygenase (Ovis aries)
# Construct: containing sheep seminal vesicle; from tissue; host or cells: sheep seminal vesicle
# Sequence (P05979 25-600): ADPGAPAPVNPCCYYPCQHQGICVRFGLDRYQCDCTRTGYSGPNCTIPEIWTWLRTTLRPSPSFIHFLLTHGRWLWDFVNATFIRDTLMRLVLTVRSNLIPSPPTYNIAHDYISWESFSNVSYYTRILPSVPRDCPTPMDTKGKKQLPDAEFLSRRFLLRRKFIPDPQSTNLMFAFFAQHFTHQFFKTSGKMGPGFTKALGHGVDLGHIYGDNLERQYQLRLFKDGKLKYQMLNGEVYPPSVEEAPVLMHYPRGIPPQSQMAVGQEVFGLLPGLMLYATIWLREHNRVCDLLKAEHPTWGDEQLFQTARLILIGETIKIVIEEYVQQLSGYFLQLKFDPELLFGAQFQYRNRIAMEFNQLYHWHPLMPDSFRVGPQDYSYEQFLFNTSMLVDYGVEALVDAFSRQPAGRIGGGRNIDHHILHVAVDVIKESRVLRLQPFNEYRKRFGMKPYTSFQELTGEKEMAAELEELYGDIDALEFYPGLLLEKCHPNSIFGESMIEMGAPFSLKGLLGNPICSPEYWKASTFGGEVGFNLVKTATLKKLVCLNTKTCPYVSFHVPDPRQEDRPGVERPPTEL
# Test Details: cyclooxygenase inhibiting activity test
# Type: biochemical
# Assay Setup: sheep seminal vesicle, pH 7.4, prostaglandin E2 formation
Consider the following molecules; for each one, report its IC50.
Express it in µM; write the number only.

[in] So what does the record say about IC50 for `CN(C)c1ccc(C(=O)C=Cc2ccc(O)c(O)c2)cc1` ?
[out] 808

[in] Item: `COc1ccc(C(=O)C=Cc2ccc(O)c(O)c2)cc1OC`
[out] 829

[in] Item: `Cc1ccc(C(=O)C=Cc2ccc(O)c(O)c2)cc1`
[out] 210

[in] Item: `COc1ccc(C(=O)C=Cc2ccc(O)c(O)c2)c(O)c1`
[out] 64.8

[in] Item: `COc1ccccc1C(=O)C=Cc1ccc(O)c(O)c1`
[out] 35.3
